The measured values listed here are drawn from patent US20240300976A1.

The reader will find reported pIC50 values listed item by item below.
target: ERAP1 (Homo sapiens, UniProt Q9NZ08)
Sequence (Q9NZ08 37-941): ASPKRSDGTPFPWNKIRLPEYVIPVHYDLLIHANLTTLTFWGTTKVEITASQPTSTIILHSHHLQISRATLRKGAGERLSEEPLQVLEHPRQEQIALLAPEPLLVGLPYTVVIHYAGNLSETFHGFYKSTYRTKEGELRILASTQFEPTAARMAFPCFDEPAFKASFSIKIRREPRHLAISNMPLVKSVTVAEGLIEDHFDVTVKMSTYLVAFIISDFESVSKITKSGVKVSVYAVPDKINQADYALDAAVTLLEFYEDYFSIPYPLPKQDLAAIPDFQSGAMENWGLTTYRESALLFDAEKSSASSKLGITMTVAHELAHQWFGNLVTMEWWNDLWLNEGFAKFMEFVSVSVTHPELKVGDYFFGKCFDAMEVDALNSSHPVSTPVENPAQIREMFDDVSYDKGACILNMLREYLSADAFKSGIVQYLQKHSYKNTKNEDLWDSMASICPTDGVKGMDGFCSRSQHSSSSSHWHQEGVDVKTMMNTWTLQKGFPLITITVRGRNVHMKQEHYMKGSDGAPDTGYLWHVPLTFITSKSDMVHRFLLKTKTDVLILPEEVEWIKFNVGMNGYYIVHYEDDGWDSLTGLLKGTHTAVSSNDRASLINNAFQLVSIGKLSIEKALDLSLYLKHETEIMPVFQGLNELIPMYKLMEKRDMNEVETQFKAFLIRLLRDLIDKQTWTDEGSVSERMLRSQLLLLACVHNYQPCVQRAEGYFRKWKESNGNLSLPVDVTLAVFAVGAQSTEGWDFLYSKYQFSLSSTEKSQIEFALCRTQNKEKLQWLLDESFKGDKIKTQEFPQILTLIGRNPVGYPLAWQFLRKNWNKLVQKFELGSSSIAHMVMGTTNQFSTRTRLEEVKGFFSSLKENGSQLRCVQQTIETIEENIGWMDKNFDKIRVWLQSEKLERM
pIC50: −log10 of the molar value.
Observed Property: pIC50

[[record]]
compound = "N#Cc1ccc2c(c1)NS(=O)(=O)c1cc(C(=O)O)ccc1OCCCCC1CCCCN21 (single isomer, unassigned) [Example 12]"
obs_value = "6.00 to 6.60"

[[record]]
compound = "N#Cc1cc2c(cc1F)N1CCCCC1COc1ccc(C(=O)O)cc1S(=O)(=O)N2 (single isomer, unassigned) [Example 37]"
obs_value = "< 6.00"

[[record]]
compound = "N#Cc1cc2c(cc1Cl)N1CCCCC1COc1ccc(C(=O)O)cc1S(=O)(=O)N2 (single isomer, unassigned) [Example 17]"
obs_value = "> 6.60"

[[record]]
compound = "N#Cc1cc2c(cc1F)N1CCCCC1COc1ccc(C(=O)O)cc1S(=O)(=O)N2 (racemic) [Example 24]"
obs_value = "> 6.60"

[[record]]
compound = "N#Cc1cc2c(cc1Cl)N1CCCC[C@H]1CCCOc1ccc(C(=O)O)cc1S(=O)(=O)N2"
obs_value = "> 6.60"

[[record]]
compound = "N#Cc1ccc2c(c1)NS(=O)(=O)c1cc(C(=O)O)ccc1OCCCCC1CCCCN21 (racemic) [Example 4]"
obs_value = "> 6.60"

[[record]]
compound = "CS(=O)(=O)c1ccc2c(c1)NS(=O)(=O)c1cc(C(=O)O)ccc1OCCCC1CCCCN21 (single isomer, unassigned) [Example 50]"
obs_value = "6.00 to 6.60"

[[record]]
compound = "N#Cc1cc2c(cc1Cl)N1CCCCC1COc1ccc(C(=O)O)cc1S(=O)(=O)N2 (single isomer, unassigned) [Example 16]"
obs_value = "< 6.00"

[[record]]
compound = "N#Cc1cc2c(cc1Cl)N1CCCCC1C/C=C/COc1ccc(C(=O)O)cc1S(=O)(=O)N2 (single isomer, unassigned)"
obs_value = "> 6.60"

[[record]]
compound = "N#Cc1ccc2c(c1)NS(=O)(=O)c1cc(C(=O)O)ccc1OCC1CCCCN21 (single isomer, unassigned) [Example 10]"
obs_value = "> 6.60"

[[record]]
compound = "N#Cc1cc2c(cc1Cl)N1CCCCC1CCCCOc1ccc(C(=O)O)cc1S(=O)(=O)N2 (racemic) [Example 22]"
obs_value = "> 6.60"

[[record]]
compound = "N#Cc1cc2c(cc1F)N1CCCC[C@H]1CCCCOc1ccc(C(=O)O)cc1S(=O)(=O)N2"
obs_value = "> 6.60"

[[record]]
compound = "N#Cc1cc2c(cc1F)N1CCCCC1CCCCOc1ccc(C(=O)O)cc1S(=O)(=O)N2 (single isomer, unassigned)"
obs_value = "> 6.60"

[[record]]
compound = "N#Cc1ccc2c(c1)NS(=O)(=O)c1cc(C(=O)O)ccc1OCCC1CCCCN21 (single isomer, unassigned) [Example 6]"
obs_value = "< 6.00"

[[record]]
compound = "N#Cc1cc2c(cc1Cl)N1CCCC[C@H]1COCCCc1ccc(C(=O)O)cc1S(=O)(=O)N2"
obs_value = "> 6.60"

[[record]]
compound = "N#Cc1cc2c(cc1Cl)N1CCCC[C@H]1COC/C=C/c1ccc(C(=O)O)cc1S(=O)(=O)N2"
obs_value = "> 6.60"

[[record]]
compound = "CS(=O)(=O)c1cc2c(cc1F)N1CCCCC1CCCOc1ccc(C(=O)O)cc1S(=O)(=O)N2 (racemic)"
obs_value = "6.00 to 6.60"

[[record]]
compound = "N#Cc1ccc2c(c1)NS(=O)(=O)c1cc(C(=O)O)ccc1OCC1CCCCN21 (racemic) [Example 3]"
obs_value = "> 6.60"

[[record]]
compound = "N#Cc1cc2c(cc1F)N1CCCCC1COc1ccc(C(=O)O)cc1S(=O)(=O)N2 (single isomer, unassigned) [Example 38]"
obs_value = "> 6.60"

[[record]]
compound = "CS(=O)(=O)NC(=O)c1ccc2c(c1)S(=O)(=O)Nc1cc(C#N)c(Cl)cc1N1CCCC[C@H]1CCCO2"
obs_value = "< 6.00"

[[record]]
compound = "N#Cc1cc2c(cc1Cl)N1CCCCC1CNCCOc1ccc(C(=O)O)cc1S(=O)(=O)N2 (racemic)"
obs_value = "< 6.00"

[[record]]
compound = "CS(=O)(=O)c1ccc2c(c1)NS(=O)(=O)c1cc(C(=O)O)ccc1OCCCC1CCCCN21 (racemic) [Example 36]"
obs_value = "> 6.60"

[[record]]
compound = "N#Cc1cc2c(cc1Cl)N1CCCC[C@H]1CCCCOc1ccc(C(=O)O)cc1S(=O)(=O)N2"
obs_value = "> 6.60"

[[record]]
compound = "N#Cc1cc2c(cc1F)N1CCCCC1CCCOc1ccc(C(=O)O)cc1S(=O)(=O)N2 (single isomer, unassigned)"
obs_value = "> 6.60"

[[record]]
compound = "N#Cc1ccc2c(c1)NS(=O)(=O)c1cc(C(=O)O)ccc1OCCC1CCCCN21 (racemic) [Example 2]"
obs_value = "< 6.00"

[[record]]
compound = "CS(=O)(=O)c1ccc2c(c1)NS(=O)(=O)c1cc(C(=O)O)ccc1OCCCC1CCCCN21 (single isomer, unassigned) [Example 49]"
obs_value = "> 6.60"

